Target: human adenosine A2a receptor (Homo sapiens, UniProt P29274)
Sequence (P29274 whole entry): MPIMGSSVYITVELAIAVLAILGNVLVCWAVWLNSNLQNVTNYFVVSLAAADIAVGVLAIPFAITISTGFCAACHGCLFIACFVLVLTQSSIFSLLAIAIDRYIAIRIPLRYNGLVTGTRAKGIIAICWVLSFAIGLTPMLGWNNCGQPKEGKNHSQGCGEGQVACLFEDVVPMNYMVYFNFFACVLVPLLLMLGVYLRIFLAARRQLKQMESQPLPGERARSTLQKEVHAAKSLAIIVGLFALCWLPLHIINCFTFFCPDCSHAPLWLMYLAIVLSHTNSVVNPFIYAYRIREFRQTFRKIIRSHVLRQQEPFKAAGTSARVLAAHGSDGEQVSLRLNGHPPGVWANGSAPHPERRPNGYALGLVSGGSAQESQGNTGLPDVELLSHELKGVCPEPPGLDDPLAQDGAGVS
Test: Adenosine A2a Receptor Functional Assay (A2AGAL2)
Conditions: CHO-K1 cells, cAMP inducible beta-galactosidase reporter, 15 nM NECA agonist challenge
pKi: −log10 of the molar value. Where a name gives a salt, the structure may show the parent alone.
Each entry gets FALSE if its pKi stays under 7, and TRUE if its pKi is 7 or above.

Use these answered entries as a reference point.
>>> class("Nc1nc(-c2ccc(Br)o2)nc2sc(CN3CCOCC3)cc12")
"TRUE"
>>> class("Nc1nc(-c2ccc(C(F)F)o2)nc2sc(CN3CCC(F)CC3)cc12")
"TRUE"
>>> class("Nc1nc(-c2ccco2)nc2sc(CN3CCC(F)CC3)cc12 [Example 92, Hydrochloride]")
"TRUE"
>>> class("N#Cc1cccc(-c2nc(N)c3cc(CN4CCC(F)CC4)sc3n2)c1")
"TRUE"
>>> class("Nc1nc(-c2ccco2)nc2sc(CN3CC[C@@H](F)C3)cc12")
"TRUE"
>>> class("Nc1nc(-c2cc(F)cc(F)c2)nc2sc(CN3CCC(F)CC3)cc12")
"FALSE"

Query compound follows.
Hi, just wondering whether Nc1nc(-c2ccco2)nc2sc(CNC3CC3)cc12 shows pKi of 7 or higher. TRUE

----------
Molecular target: human adenosine A1 receptor (Homo sapiens, UniProt P30542)
Sequence (P30542 whole entry): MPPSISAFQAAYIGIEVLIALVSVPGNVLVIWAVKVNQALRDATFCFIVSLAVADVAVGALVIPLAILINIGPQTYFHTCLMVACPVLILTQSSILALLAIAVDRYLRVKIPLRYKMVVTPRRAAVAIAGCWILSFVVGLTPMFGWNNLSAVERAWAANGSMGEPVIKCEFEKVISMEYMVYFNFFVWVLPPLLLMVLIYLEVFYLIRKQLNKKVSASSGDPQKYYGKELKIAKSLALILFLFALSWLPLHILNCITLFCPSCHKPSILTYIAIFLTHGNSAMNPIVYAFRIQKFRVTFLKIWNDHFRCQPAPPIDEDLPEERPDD
Assay: Adenosine A1 Receptor Functional Assay (A1GAL2)
Settings: CHO-K1 cells, cAMP inducible beta-galactosidase reporter, 4 nM r-PIA/1 uM Forskolin challenge
# key: entry, value: Ki
// units = µM; emit number, no label

Guide cases for Ki, answers given:
>>> measured_value("Nc1nc(-c2ccnc(Cl)c2)nc2sc(CN3CCOCC3)cc12 [Example 105]")
0.876
>>> measured_value("C[C@@H]1CN(Cc2cc3c(N)nc(-c4cccc(C#N)c4)nc3s2)C[C@H](C)O1 [Example 17]")
1.07

Next molecule, please.
Any idea what its Ki is? The molecule is Nc1nc(-c2ccc3c(c2)OCO3)nc2sc(CN3CCC(F)CC3)cc12 [Example 76] 0.74

----------
Biological target: human adenosine A1 receptor (Homo sapiens)
Construct: expressed in transfected cells; host or cells: CHO-K1
Assay: Adenosine A1 Receptor Functional Assay (A1GAL2)
Assay type: cell-based
Settings: CHO-K1 cells, cAMP inducible beta-galactosidase reporter, 4 nM r-PIA/1 uM Forskolin challenge
property: pKi
# log scale: pKi equals minus log10 of the concentration in mol/L

Guide cases for pKi, answers given:
>>> measured_value("Nc1nc(-c2cccc(F)c2)nc2sc(CN3CCC(F)CC3)cc12")
5.90
>>> measured_value("Nc1nc(-c2cccc(Cl)c2)nc2sc(CN3CCOCC3)cc12")
6.10

Any idea what its pKi is? The compound is Nc1nc(-c2ccco2)nc2sc(CN3CCC(F)(F)C3)cc12 5.91

----------
# key: entry, value: Ki
Target: human adenosine A1 receptor (Homo sapiens, UniProt P30542)
Experiment: Adenosine A1 Receptor Functional Assay (A1GAL2)
Conditions: CHO-K1 cells, cAMP inducible beta-galactosidase reporter, 4 nM r-PIA/1 uM Forskolin challenge

Guide cases for Ki, answers given:
>>> measured_value("Nc1nc(-c2cccs2)nc2sc(CN3CCCC3)cc12")
"> 10000 nM"
>>> measured_value("CC(C)(C)c1ccc(-c2nc(N)c3cc(CN4CCOCC4)sc3n2)s1")
"> 927 nM"

Next molecule, please.
Any idea what its Ki is? The molecule is CCc1ccc(-c2nc(N)c3cc(CN4CCOCC4)sc3n2)o1 > 610 nM

----------
Biological target: human A2a adenosine receptor (Homo sapiens, UniProt P29274)
Sequence (P29274 whole entry): as the sequence (P29274 whole entry) above
Assay: Ligand Binding Assay for Adenosine A2a Receptor (A2A-B)
Conditions: HEK293 plasma membrane, radioligand [3H]CGS21680
API: label(entry) gives Fulfilled if the entry's Ki is strictly smaller than 90 nM; on equality or larger values it gives Not fulfilled.

Use these answered entries as a reference point.
>>> class("CCN(CC)Cc1cc2c(N)nc(-c3ccco3)nc2s1")
"Not fulfilled"
>>> class("N#Cc1ccc(-c2nc(N)c3cc(CN4CC=CCC4)sc3n2)cc1")
"Not fulfilled"
>>> class("Nc1nc(-c2cccs2)nc2sc(CN3CCCC3)cc12")
"Not fulfilled"
>>> class("N#Cc1cccc(-c2nc(N)c3cc(CN4CC=CC4)sc3n2)c1")
"Fulfilled"
>>> class("Nc1nc(-c2ccc(C(F)F)o2)nc2sc(CN3CCOCC3)cc12")
"Fulfilled"

Item Nc1nc(-c2ccco2)nc2sc(CNC3CC3)cc12 : Ki beneath 90 nM, strictly? Not fulfilled

Item N#Cc1cccc(-c2nc(N)c3cc(CN4C5CCC4CC5)sc3n2)c1 : Ki beneath 90 nM, strictly? Fulfilled

----------
Molecular target: human adenosine A1 receptor (Homo sapiens, UniProt P30542)
Test: Adenosine A1 Receptor Functional Assay (A1GAL2)
Conditions: CHO-K1 cells, cAMP inducible beta-galactosidase reporter, 4 nM r-PIA/1 uM Forskolin challenge
pKi: −log10 of the molar value.
property: pKi

Guide cases for pKi, answers given:
>>> measured_value("Cc1csc(-c2nc(N)c3cc(CN4CCOCC4)sc3n2)n1 [Example 15]")
"< 6.03"
>>> measured_value("Nc1nc(C2CC2)nc2sc(CN3CCCC3)cc12 [Example 43]")
"< 5.00"

Next compound, please.
Any idea what its pKi is? The compound is Nc1nc(-c2ccc(C3CC3)o2)nc2sc(CN3CCOCC3)cc12 [Example 22] < 5.97

----------
Molecular target: human adenosine A2a receptor (Homo sapiens, UniProt P29274)
Test: Adenosine A2a Receptor Functional Assay (A2AGAL2)
Conditions: CHO-K1 cells, cAMP inducible beta-galactosidase reporter, 15 nM NECA agonist challenge
pKi: −log10 of the molar value.
Each entry gets not fulfilled if its pKi stays under 7, and fulfilled if its pKi is 7 or above.

>>> class("Nc1nc(-c2ccnc(Cl)c2)nc2sc(CN3CCCCC3)cc12")
"not fulfilled"

Query compound follows.
Hi, just wondering whether Nc1nc(-c2ccco2)nc2sc(CN3CCC(F)(F)CC3)cc12 shows pKi of 7 or higher. fulfilled

----------
Target: human adenosine A2a receptor (Homo sapiens)
Experiment: Adenosine A2a Receptor Functional Assay (A2AGAL2)
Conditions: CHO-K1 cells, cAMP inducible beta-galactosidase reporter, 15 nM NECA agonist challenge
property: Ki (nM)
// units = nM; emit number, no label

Guide cases for Ki, answers given:
>>> measured_value("N#Cc1cccc(-c2nc(N)c3cc(CN4CCCC4c4ccccc4)sc3n2)c1 (stereo not shown)")
154
>>> measured_value("N#Cc1ccc(-c2nc(N)c3cc(CN4CC=CCC4)sc3n2)cc1")
178
>>> measured_value("Cc1ccc(-c2nc(N)c3cc(CN4CCc5ccccc5C4)sc3n2)o1")
202
>>> measured_value("Cc1ccc(-c2nc(N)c3cc(CN4CCCC4)sc3n2)o1")
25.9

Next compound, please.
Any idea what its Ki is? The compound is N#Cc1ccc(-c2nc(N)c3cc(CN4CCC(F)CC4)sc3n2)s1 91.3

----------
Target: human adenosine A2a receptor (Homo sapiens, UniProt P29274)
Assay: Adenosine A2a Receptor Functional Assay (A2AGAL2)
Conditions: CHO-K1 cells, cAMP inducible beta-galactosidase reporter, 15 nM NECA agonist challenge
property: pKi
# log scale: pKi equals minus log10 of the concentration in mol/L

Any idea what its pKi is? The molecule is Nc1nc(-c2ccco2)nc2sc(CNC3CCCCC3)cc12 6.77

Any idea what its pKi is? The molecule is Nc1nc(-c2ccc(Cl)o2)nc2sc(CN3CC=CC3)cc12 7.99

Any idea what its pKi is? The molecule is Nc1nc(-c2ccco2)nc2sc(CN3CCCC3)cc12 7.55

Any idea what its pKi is? The molecule is Cc1csc(-c2nc(N)c3cc(CN4CCOCC4)sc3n2)n1 6.68

Any idea what its pKi is? The molecule is Cc1csc(-c2nc(N)c3cc(CN4[C@H](C)CCC[C@@H]4C)sc3n2)n1 7.05

Any idea what its pKi is? The molecule is Nc1nc(-c2ccco2)nc2sc(CN3CCOCC3)cc12 7.28

Any idea what its pKi is? The molecule is C[C@@H]1CCC[C@H](C)N1Cc1cc2c(N)nc(-c3ccc(C4CC4)o3)nc2s1 6.94

Any idea what its pKi is? The molecule is Nc1nc(-c2ccon2)nc2sc(CN3CCOCC3)cc12 5.99

Any idea what its pKi is? The molecule is COc1cccc(-c2nc(N)c3cc(CN4CCCC(F)(F)C4)sc3n2)c1 7.01

----------
Target: human adenosine A2a receptor (Homo sapiens, UniProt P29274)
Test: Adenosine A2a Receptor Functional Assay (A2AGAL2)
Details: CHO-K1 cells, cAMP inducible beta-galactosidase reporter, 15 nM NECA agonist challenge
property: pKi
# log scale: pKi equals minus log10 of the concentration in mol/L

Guide cases for pKi, answers given:
>>> measured_value("N#Cc1cccc(-c2nc(N)c3cc(CN4CCCC(F)(F)C4)sc3n2)c1 [Example 62]")
7.30
>>> measured_value("Nc1nc(-c2ccco2)nc2sc(CNC34CC5CC(CC(C5)C3)C4)cc12 [Example 91]")
6.92

Next compound, please.
Any idea what its pKi is? The compound is CCc1ccc(-c2nc(N)c3cc(CN4[C@H](C)CCC[C@@H]4C)sc3n2)o1 [Example 11] 7.60
